observed-property: melting point

Example results:
CN(C)c1cc2c(cc1-c1ccccc1F)NC(=O)CC(c1cccc(-c3ccncc3)c1)=N2 : 236 to 237 °C
Cc1cc(C)c(-c2cccc(C3=Nc4cc(C)c(C(F)(F)F)cc4NC(=O)C3)c2)cn1 : 218 to 219 °C
O=C1CC(c2cccc(-c3ccc(C4CC4)nc3)c2)=Nc2cc(OCC(F)(F)F)ccc2N1 : 178 to 180 °C
Cc1cc(-c2cccc(C3=Nc4cc(N(C)C)c(C(F)(F)F)cc4NC(=O)C3)c2)nc(N)n1 : 250 to 253 °C
Cc1cc2c(cc1Cl)NC(=O)CC(c1ccnc(-c3cccnc3)c1)=N2 : 229 to 231 °C

IN: Provide melting point value for the following compound: `O=C1CC(c2cccc(-c3cccnn3)c2)=Nc2ccc(C(F)(F)F)cc2N1`
OUT: 238 to 240 °C
